Hello, the source for this data is patent US20240174662A1, in case you need it.

Target: SIK2 (Homo sapiens (Human), UniProt Q9H0K1)
Sequence (Q9H0K1 whole entry, species assumed): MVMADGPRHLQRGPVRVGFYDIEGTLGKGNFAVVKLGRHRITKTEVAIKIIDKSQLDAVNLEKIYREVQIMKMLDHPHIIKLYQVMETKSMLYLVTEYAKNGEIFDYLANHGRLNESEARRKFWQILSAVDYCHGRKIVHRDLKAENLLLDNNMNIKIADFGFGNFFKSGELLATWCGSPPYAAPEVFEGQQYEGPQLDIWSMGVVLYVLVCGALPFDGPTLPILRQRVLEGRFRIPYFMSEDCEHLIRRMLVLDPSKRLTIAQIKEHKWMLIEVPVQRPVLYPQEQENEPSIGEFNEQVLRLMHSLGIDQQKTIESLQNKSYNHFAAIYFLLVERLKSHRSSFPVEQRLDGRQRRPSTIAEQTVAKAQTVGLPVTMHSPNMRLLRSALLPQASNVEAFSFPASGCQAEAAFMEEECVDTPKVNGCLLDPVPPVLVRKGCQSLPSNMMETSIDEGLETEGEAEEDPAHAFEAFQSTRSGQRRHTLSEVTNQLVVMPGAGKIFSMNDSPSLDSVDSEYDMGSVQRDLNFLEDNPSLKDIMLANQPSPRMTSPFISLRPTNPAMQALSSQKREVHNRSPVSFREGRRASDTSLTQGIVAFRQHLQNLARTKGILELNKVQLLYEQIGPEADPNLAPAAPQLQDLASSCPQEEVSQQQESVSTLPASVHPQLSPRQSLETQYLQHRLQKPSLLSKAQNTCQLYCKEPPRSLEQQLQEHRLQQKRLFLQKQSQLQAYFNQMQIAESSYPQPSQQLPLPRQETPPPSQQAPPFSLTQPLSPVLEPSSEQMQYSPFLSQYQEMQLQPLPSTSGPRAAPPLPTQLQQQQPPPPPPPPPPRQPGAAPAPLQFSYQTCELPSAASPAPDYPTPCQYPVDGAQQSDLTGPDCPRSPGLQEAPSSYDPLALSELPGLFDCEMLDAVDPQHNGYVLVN
Assay: SIK2 Enzymatic Assay Version 2 (High ATP)
Type: biochemical
Details: 3 mM ATP and 200 μM HDAC5tide final, ADP-Glo Max luminescence
READOUT_KIND: IC50 (nM)

Known IC50 results, listed for orientation:
Input line: Tell me the measured IC50 of `Cc1cc(Nc2cc3cc(-c4c(OC[C@H]5CCN5C)cnn4C)ccn3n2)nc(C(=O)N(C)C)n1` , please.
Output line: 2.8

Input line: Tell me the measured IC50 of `CCN1CC[C@@H]1COc1cnn(C(F)F)c1-c1ccn2nc(Nc3cncc(C)n3)cc2c1` , please.
Output line: 1.8

Input line: Tell me the measured IC50 of Cc1cc(Nc2cc3cc(-c4c(OC[C@H](O)C5CCC5)cnn4C)ccn3n2)nc(C)n1 (single isomer, unassigned) , please.
Output line: 155

Input line: Tell me the measured IC50 of `Cc1cc(Nc2cc3cc(-c4c(O[C@@H]5CCN(C)[C@H]5C)cnn4C)ccn3n2)nc(C)n1` , please.
Output line: 67.3

Input line: Tell me the measured IC50 of `CN1CC(COc2cnn(C)c2-c2ccn3nc(NC(=O)C4CC4)cc3c2)(c2ccccc2)C1` , please.
Output line: 72.5

A = Cc1cc(Nc2cc3cc(-c4c(CO[C@@H]5CN(C)C[C@H]5C)cnn4C)ccn3n2)nc(C)n1 (racemic) [Example 364]
B = C[C@H]1CN(C)[C@@H]1COc1cnn(C)c1-c1ccn2nc(NC(=O)C3CC3)cc2c1
Input line: From the items above, decide which of A and B has the lower IC50 reading. Respond with the label that goes with your answer.
Output line: A
(A: 2.4 nM, B: 117 nM)

* * *

Biological target: SIK2 (Homo sapiens (Human), UniProt Q9H0K1)
Experiment: SIK2 Enzymatic Assay Version 2 (High ATP)
Type: biochemical
Conditions: 3 mM ATP and 200 μM HDAC5tide final, ADP-Glo Max luminescence
Method: All steps were performed at room temperature. Compounds were pre-plated onto an assay plate using an Echo acoustic dispenser (Labcyte, […] or […]) at 80 nL per well. […] The plate was then read on the Pherastar (BMG Labtech) using a luminescence read. […]
pIC50: −log10 of the molar value.
READOUT_KIND: pIC50

Known pIC50 results, listed for orientation:
Input line: State its pIC50 on SIK2 (Homo sapiens (Human), UniProt Q9H0K1): `Cc1onc(OC[C@H]2CCN2C)c1-c1ccn2nc(NC(=O)C3CC3)cc2c1`
Output line: 7.78

Input line: State its pIC50 on SIK2 (Homo sapiens (Human), UniProt Q9H0K1): `COc1nccc(Nc2cc3cc(-c4c(OC[C@H]5CCN5C)cnn4C)ccn3n2)n1`
Output line: 8.80

Input line: State its pIC50 on SIK2 (Homo sapiens (Human), UniProt Q9H0K1): `CN1CC[C@H](Oc2cnn(C(F)F)c2-c2ccn3nc(NC(=O)C4CC4)cc3c2)C1`
Output line: 6.84

Input line: State its pIC50 on SIK2 (Homo sapiens (Human), UniProt Q9H0K1): `Cc1cc(Nc2cc3cc(-c4c(OC[C@H]5CCN5C)cnn4C)ccn3n2)nc2c1CCC2`
Output line: 8.64

Input line: State its pIC50 on SIK2 (Homo sapiens (Human), UniProt Q9H0K1): `Cc1onc(O[C@@H]2CN[C@H](C(F)F)C2)c1-c1ccn2nc(NC(=O)C3CC3)cc2c1`
Output line: 6.90

I = Cc1cc(Nc2cc3cc(-c4c(OC[C@H]5C[C@H](O)C5)cnn4C)ccn3n2)nc(C)n1
II = Cc1cc(Nc2cc3cc(-c4c(OC[C@H]5CCCN5C)cnn4C)ccn3n2)nc(C)n1
Input line: From the items above, decide which of I and II has the lower pIC50 reading. Respond with the label that goes with your answer.
Output line: I
